# measurementNotes: yeast display, Sf9 membrane polyspecificity reagent, FACS + sequencing; frameworks hold sequencing errors
reportedProperty: polyreactivity (PSR sort gate)

Below: 6 sequences and their reported polyreactivity (PSR sort gate).
1. QVQLVESGGGLVQAGGSLRLSCAASGSTFYPNAMGWYRQAPGKERELVARISGRGGRTYYADSVKGRFTISRDNAKNTVYLLMNSLKPEDTAVYYCSKDPSSDLDYDYWGQGTQVTVSS: low polyreactivity
2. QVQLVESGGGLVQAGGSLRLSCAASGIIFYVYAMGWYRQAPGKERELVAAISDTAGDTYYADSVKGRFTISRDNAKNTVYLQMNSLKPEDTAVSYCAADYYPLVGYWGQGTQVTVSS: low polyreactivity
3. QVQHVESGGGLVQAGGSLRLSCAASGSIFASNAMGWYRQPPGKEREFVAAISSSGTRTYSADSVKGRFTISRDNAKNTVYLQLNSLKQEDTAVYYCATRRGYDSVYYFYTLWSYYWGQGTQVTVSS: low polyreactivity
4. QVQLVESGGGLVQAGGSLRLSCAASGFTVGSNAMGWYRQAPGKERELVAAISRSSGRTYYADSVKGRFTISRDNAKNTVDLQMNSLKPEDTAVYYCAAQTRYRISLQYYYWGQGTQVTVSS: high polyreactivity
5. QVQLVESGGGLVQAGGSLRLSCAASGRIFGYYARGWYRQAPGKEREFVAGITQRTDSTYYADSVKGRFTISRDNAKNTVYLQMNSLKPEDTAVYYCAARGYGGYHWGYYWGQGTQVTVSS: high polyreactivity
6. QVQLVESGGGLVQAGGSLRLSCAASGSTFGYYAMGWYRQAPGKERELVAAISASGSRTYYADSVKGRFTISRDNAKNTVYSQMNSQKPEDTAVYYCPALQYRRKIPTAYAGDYWGQGTQVTVSS: high polyreactivity

For each listed entry, give its polyreactivity (PSR sort gate).
1. QVQLVESGGGLVQAGGSLRLSCAASGNTFPPNAMGWSRQAPGKERELVAAISWSGDSTYYADSVKGRFTISRDNAKNTVYLQMNSLKPEDTAVYYCAAAIFGEYEYWGQGTQVTVSS
2. QVQLVESGGGLVQAGGSLRLSCAASGSIFTYNTMGWYRQAPGKERELVAAISSGGRTYYADSVKGRFTISRDNAKNTVYLQMNSLKPEDTAVYYCAARYYFWGQGTQVTVSS

1. low polyreactivity
2. high polyreactivity

For each listed entry, give its polyreactivity (PSR sort gate).
1. QVQLVESGGGLVQAGGSLRLSCAASGSIFSRNAMGWYRQAPGKERELVAAISYSGGTTYYADSVKGRFTISRDYAKNTVYLQMNSLKPEDTAVYYCNKRYWVRTGKVSSYDYWGQGTQVSVSS
2. QVQLVESGGGLVQAGGSLRLSCAASGFTFSAYAMGWYRQAPGKERELVASITRSGGSTYYADSVKGRFTISRDNAKNTVYLQMNCLKPEDTAVFYCAKSDRPWWGYYYQFDYWGQGTQVSVSS
3. QVQLVESGGGLVQAGGSLRLSCAASGFTFQSNAMGWYRQAPGKERELVATISLTGGSTYYADSVKGRFTISRDNAKNTVYLQMNSLKPEDTAVYYCNAVRYASPYGYWGQGTQVTVSS
4. QVQLVESGGGVVQAGGRLGLSCAASGSTFSQNPMGWYRQAPGKERELVASISSGGSTHYADSVKGRFTISRDNAKNTVYLQMNSLKPEDTAVYYCTTDLPNYVPFIVVEAYNYWGQGTQVTVSS
5. QVQLVESGGGLVQAGGSLRLICAASGRTFGTHTMGWYRQAPGKERELVAAISSRGGTTYYADSVKGRFTISRDNAKNTVYLQMNSLKPEDTAVYYSNTGTRAIQRDGFEYWGQGTQVTVSS
6. QVQLVESGGGLVQAGGSLRLSCAASGFTFIRYAMGWYRQAPGKEREVVAAISWRVGITYYADSVKGRFTISRDNAKNTVYLQMNSQKPEDTAVYYCARDYRNPPFAYEYWGQGTQVTVSS
7. QVQLVESGGGLVQAGGSLRLSCAASGFIIVYYAMGWYRQAPGKERELVAGISSGGSTYYADSVKGRFTISRDNAKNTVYLQMNSLKPEDTAVYYCATRYLYRGYSYFAYDYWGQGTQVTVSS
8. QVQLVESGGGLVQAGGSLRLSCAASGRTFSIYTMGWYRQAPGKERELVASIRRSSGSTYYADSVKGRFTISRDNAKNTVYLQMNSLKPEDTAVYYCAADRIRLDSRKFDYWGQGTQVTVSS

1: high polyreactivity; 2: low polyreactivity; 3: high polyreactivity; 4: low polyreactivity; 5: low polyreactivity; 6: low polyreactivity; 7: low polyreactivity; 8: low polyreactivity

For each listed entry, give its polyreactivity (PSR sort gate).
1. QDQLVESGGGLVQAGGSLRLRCAASRFYTMGWYRQAPGKERELVAAISWSGGDTYYADSVKGRFTISRDNAKNTVYLQMNSLKPEDTAVYYCAKKTIGSYVHEPYYYWGQGTQVTVSS
2. QVQLGESGGGFVQAGGLLRLSCAASGRTFRVYAMGWYRQAPGKERELVAAITRGGSTYYADSVKGRFTFSRDNAQNTVYLQMNSLKPEDTAVYSCAADVLRTQPIGWYSHSPLEYWGQGTQVTVSS
3. QFQLVESGGGLVQAGGSLRLSCAASGRIFVGYAMGSYRQAPGKEMELVATISSRGGSTYYADSVKGRFTISRDNAKNTLYLQMNSLKPEDTAVYYCAAVARNNRNSRQRIPYDFWGQGTQVTVSS

1. low polyreactivity
2. high polyreactivity
3. high polyreactivity

For each listed entry, give its polyreactivity (PSR sort gate).
1. QVQLVESGGGLVQAGGSLRLSCAASGRNFYYYAMGWSRQAPGKERELVAAISWSGGSTRYADSVKGRFTISRDNPKNTVYLQMNSLKPEDTAVYYCAAEPDYWVGWIRYDYWGQGTQVTVSS
2. QVQLVESGGGLVQAGGSLRLSCAASGRTFNRNAMGWYRQAPGKERELVAAISWGGSRTYYADSVKGRFTISRDNAKNTVYLQMNSLKPEDTAVYYCAVDGFRGRSHGANDYWGQGTQVTVSS

low polyreactivity
high polyreactivity

* * *

# measurementNotes: yeast display, Sf9 membrane polyspecificity reagent, FACS + sequencing; frameworks hold sequencing errors
reportedProperty: polyreactivity (PSR sort gate)

Below: 4 sequences and their reported polyreactivity (PSR sort gate).
1. QVQVVESVGGLVHAGCSLRLSCAASGRTFISNAMGWYRQAPGKERELVATITYSDATTYYADSVKGRFTISRDNAKNTVYLQMNSLKPEDTAVYYCIAQSRSYDRYISAGRRYDYWGQGTQVTVSS: low polyreactivity
2. QVQLVESGGGLVQAGGSLRLSCAASGNTFYPNAMGWYRQAPGKERELVAAITTSGGTTYYADSVKGRFTISRDNAKNTVYLQMNSLKPEDTAVYYCAAYWSRDKYDYWGQGTQVTVSS: low polyreactivity
3. QVQLVESGAGIVQAGGSLRLSCAASGSILWHNAMGWYRQAPGKEREYVDAISARGTRTYYADSVKGRFTISRDNAKNTVYLQLKSLNPEDTAVYYCAARYWDDRARAEDYWGQVTQVTVSS: high polyreactivity
4. QVQLVESGGGLVQAGGSLRLSCAASGRTFPGTAMGWYRQAPGKVRELVAAISSSGGSTHYADSVKGRFTISRDTAKNTVYYQMNSLKPEDTAVYYCNTVYAVWYKLDYWGQGTQVTVSS: high polyreactivity

For each listed entry, give its polyreactivity (PSR sort gate).
1. QVQLVESGGGLVQAGGTLRLSCAASGSIFARYAMGCSIQAPGKERELVAAISGSGASTYYADSVKGRFTISRDNAKNTVYLQMNSLKPEDTAVYYCARPFLRRPTYRFETGYGYWGQGTQVTVSS
2. QVQLVESGGGLVQAGGSLRLSCADSGFTFVAYAMGWYRQAPGKERELVAVISRGGSTYYADSVKGRFTISRDNAKNTVYLQMNSLKPEDTAVYYCAATYIHSYGKFYYWGQGTQLTVSS

1. high polyreactivity
2. low polyreactivity

For each listed entry, give its polyreactivity (PSR sort gate).
1. QGQLVESGGGLFQAGASLRLSCAASGITFYDNAMGLYRQAPGKERELVAGISYDGDSTYADSVKGRFTISRDNAKNTVYLQMNSLKPEDTAVYYCAALCPYDWLWAGDYWGQGTQVTVSS
2. QVQLEESGGGLVQAGGSLRISCAASGSIFPSYAMGWYRQAPGKERELVAAISSRGGSTYYADSVKGRFTISRDNAKNSVYLQMNSLKPEDTAVYYCNAVAGGVYVDKGYDYWGQGTQVTVSS
3. QVQLVETGGGLVQAGGSLRLSCAASGNMFVTYDMGWYRKAPGKERELVASISWNGGSTNYADSVKGRFTISRDNAKNTVYLQMNSLKPEDTAVYYCAVDYARDKGYPYGYWGQGTQVTVSS
4. QVQLVESGGGLVQAGGSLRLSCAASGFIFIYYAMGWYRQAPGKERELVATINGITGSTYYADSVKGRFTISRDNAKNTVYLQMNSLKPEDTAVYYCAKVPRKYRAWMDYWGQGTQVTVSS
5. QVQLVETGGGLVQAGGSLRLSCAASGSTFYAYVMGWYRQAPGKERELVAAITSAGSTYYADSVKGRFTISLDNAKNTVYLQMNSLKPEDTAVYYCAADAYTESAYYKYDYWGQGTQVTVSS

low polyreactivity
high polyreactivity
low polyreactivity
high polyreactivity
low polyreactivity

Origin of values: the nanobody polyreactivity screen of Harvey et al. (2022)
